# target-or-system: UniProt:P08684
# Sequence (P08684 whole entry): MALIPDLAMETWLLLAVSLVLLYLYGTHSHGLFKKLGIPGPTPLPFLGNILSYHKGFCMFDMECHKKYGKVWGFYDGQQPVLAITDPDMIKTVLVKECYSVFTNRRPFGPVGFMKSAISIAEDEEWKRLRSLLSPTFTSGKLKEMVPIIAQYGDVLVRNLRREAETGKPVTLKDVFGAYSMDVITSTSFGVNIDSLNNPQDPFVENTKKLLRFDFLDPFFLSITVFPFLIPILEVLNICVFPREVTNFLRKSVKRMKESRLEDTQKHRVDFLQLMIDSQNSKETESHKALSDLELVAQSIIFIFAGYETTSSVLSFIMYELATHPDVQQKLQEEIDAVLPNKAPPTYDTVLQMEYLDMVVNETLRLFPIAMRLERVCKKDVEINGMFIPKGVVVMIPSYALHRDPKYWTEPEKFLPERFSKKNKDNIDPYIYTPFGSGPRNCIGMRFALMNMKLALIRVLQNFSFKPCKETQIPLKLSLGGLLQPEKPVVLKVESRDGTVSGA
# assay-text: Inhibition of CYP3A4 in human liver microsomes using testosterone as substrate preincubated for 10 mins followed by NADPH addition and measured for 15 mins by LC-MS/MS analysis
# Assay type: ADME
pIC50: −log10 of the molar value.
quantity: pIC50

Supply reported pIC50 belonging to this compound: C[C@@H]1CN2c3c(cc4c(N5CC6(CC6)OC5=O)noc4c3F)CC3(C(=O)NC(=O)NC3=O)[C@H]2[C@H](C)O1 < 4.60

---

# Tested on: Staphylococcus epidermidis
# assay-text: Antibacterial activity against methicillin-sensitive Staphylococcus epidermidis after 18 to 20 hrs by CLSI-protocol based broth microdilution method
# Type: functional
quantity: MIC

Provide MIC, recorded with Staphylococcus epidermidis, of C[C@@H]1CN2c3c(cc4c(N5C[C@H](CF)SC5=O)noc4c3F)CC3(C(=O)NC(=O)NC3=O)[C@H]2[C@H](C)O1 < 0.03 µg/mL

Provide MIC, recorded with Staphylococcus epidermidis, of C[C@@H]1CN2c3c(cc4c(N5C[C@H](C)SC5=O)noc4c3C#N)CC3(C(=O)NC(=O)NC3=O)[C@H]2[C@H](C)O1 0.06 to 0.125 µg/mL

Provide MIC, recorded with Staphylococcus epidermidis, of C[C@H]1COc2c(N3CCN(C)CC3)c(F)cc3c(=O)c(C(=O)O)cn1c23.C[C@H]1COc2c(N3CCN(C)CC3)c(F)cc3c(=O)c(C(=O)O)cn1c23.O 0.5 to 4 µg/mL

Provide MIC, recorded with Staphylococcus epidermidis, of C[C@@H]1CN2c3c(cc4c(N5C(=O)OCC56CC6)noc4c3F)CC3(C(=O)NC(=O)NC3=O)[C@H]2[C@H](C)O1 (racemic) 1 to 2 µg/mL

---

Hi there, I'd appreciate the recorded MIC for every entry that follows.
# Tested on: Streptococcus pyogenes
# assay-text: Antibacterial activity against Streptococcus pyogenes after 18 to 20 hrs by CLSI-protocol based broth microdilution method
# Format: functional
# measurement-context: Streptococcus pyogenes; read-out: MIC

Supply reported MIC belonging to this molecule: C[C@@H]1CN2c3c(cc4c(N5C(=O)OCC5(C)C)noc4c3F)CC3(C(=O)NC(=O)NC3=O)[C@H]2[C@H](C)O1 (racemic) 16 µg/mL

Supply reported MIC belonging to this molecule: C[C@@H]1CN2c3c(cc4c(N5C(=O)SC[C@@H]5C)noc4c3F)CC3(C(=O)NC(=O)NC3=O)[C@H]2[C@H](C)O1 0.125 to 0.25 µg/mL

Supply reported MIC belonging to this molecule: CC[C@H]1CN(c2noc3c(F)c4c(cc23)CC2(C(=O)NC(=O)NC2=O)[C@H]2[C@H](C)O[C@H](C)CN42)C(=O)S1 < 0.03 µg/mL

---

# System: Staphylococcus epidermidis
# assay-text: Antibacterial activity against methicillin-sensitive Staphylococcus epidermidis after 18 to 20 hrs by CLSI-protocol based broth microdilution method
# Type: functional
quantity: MIC

Supply reported MIC belonging to this compound: C[C@@H]1CN2c3c(cc4c(N5CC6(CCCC6)OC5=O)noc4c3F)CC3(C(=O)NC(=O)NC3=O)[C@H]2[C@H](C)O1 0.06 to 0.25 µg/mL

Supply reported MIC belonging to this compound: CC[C@@H]1CSC(=O)N1c1noc2c(F)c3c(cc12)CC1(C(=O)NC(=O)NC1=O)[C@H]1[C@H](C)O[C@H](C)CN31 1 µg/mL

Supply reported MIC belonging to this compound: C[C@@H]1CN2c3c(cc4c(N5CC6(CC6)OC5=O)noc4c3F)CC3(C(=O)NC(=O)NC3=O)[C@H]2[C@H](C)O1 (racemic) ≤ 0.03 µg/mL

Supply reported MIC belonging to this compound: C[C@@H]1CN2c3c(cc4c(N5CCSC5=O)noc4c3F)CC3(C(=O)NC(=O)NC3=O)[C@H]2[C@H](C)O1 < 0.03 µg/mL

Supply reported MIC belonging to this compound: C[C@@H]1CN2c3c(cc4c(N5C[C@H](CN=[N+]=[N-])SC5=O)noc4c3F)CC3(C(=O)NC(=O)NC3=O)[C@H]2[C@H](C)O1 0.03 to 0.25 µg/mL

Supply reported MIC belonging to this compound: C[C@@H]1CN2c3c(cc4c(N5CC6(COC6)OC5=O)noc4c3F)CC3(C(=O)NC(=O)NC3=O)[C@H]2[C@H](C)O1 0.03 to 0.125 µg/mL

Supply reported MIC belonging to this compound: C[C@@H]1CN2c3c(cc4c(N5C[C@H](CS(C)(=O)=O)SC5=O)noc4c3F)CC3(C(=O)NC(=O)NC3=O)[C@H]2[C@H](C)O1 0.25 to 1 µg/mL

---

# System: Streptococcus pneumoniae
# assay-text: Antibacterial activity against penicillin-resistant Streptococcus pneumoniae after 18 to 20 hrs by CLSI-protocol based broth microdilution method
# Type: functional
Calls of active or inactive are those of the source. No cut-off for these calls is given here.
quantity: MIC

Field: example entries. Status: answers known.
molecule	MIC
C[C@@H]1CN2c3c(cc4c(N5C(=O)OCC5(C)C)noc4c3F)CC3(C(=O)NC(=O)NC3=O)[C@H]2[C@H](C)O1 (racemic)	16 µg/mL
C[C@@H]1CN2c3c(cc4c(N5CCSCC5)ncnc4c3F)CC3(C(=O)NC(=O)NC3=O)[C@H]2[C@H](C)O1 (racemic)	inactive
C[C@@H]1CN2c3c(cc4c(N5C(=O)SC[C@@H]5C)noc4c3F)CC3(C(=O)NC(=O)NC3=O)[C@H]2[C@H](C)O1	0.125 to 1 µg/mL
Cc1ncnc2c(F)c3c(cc12)CC1(C(=O)NC(=O)NC1=O)[C@H]1[C@H](C)O[C@H](C)CN31 (racemic)	inactive
C[C@@H]1CN2c3c(cc4c(-n5cncn5)ncnc4c3F)CC3(C(=O)NC(=O)NC3=O)[C@H]2[C@H](C)O1 (racemic)	inactive

Supply reported MIC belonging to this molecule: C[C@@H]1CN2c3c(cc4c(N5C[C@H](C)SC5=O)noc4c3C#N)CC3(C(=O)NC(=O)NC3=O)[C@H]2[C@H](C)O1 0.125 to 0.25 µg/mL

Supply reported MIC belonging to this molecule: C[C@@H]1CN2c3c(cc4c(N5CC6(COC6)OC5=O)noc4c3F)CC3(C(=O)NC(=O)NC3=O)[C@H]2[C@H](C)O1 0.125 to 0.5 µg/mL

Supply reported MIC belonging to this molecule: C[C@@H]1CN2c3c(cc4c(N5CCOCC5)ncnc4c3F)CC3(C(=O)NC(=O)NC3=O)[C@H]2[C@H](C)O1 (racemic) inactive

Supply reported MIC belonging to this molecule: C[C@@H]1CN2c3c(cc4c(N5C[C@H](CS(C)(=O)=O)SC5=O)noc4c3F)CC3(C(=O)NC(=O)NC3=O)[C@H]2[C@H](C)O1 0.5 to 4 µg/mL

Supply reported MIC belonging to this molecule: CC(=O)NC[C@H]1CN(c2noc3c(F)c4c(cc23)CC2(C(=O)NC(=O)NC2=O)[C@H]2[C@H](C)O[C@H](C)CN42)C(=O)S1 2 µg/mL

Supply reported MIC belonging to this molecule: C[C@@H]1CN2c3c(cc4c(N5CC6(CCC6)OC5=O)noc4c3F)CC3(C(=O)NC(=O)NC3=O)[C@H]2[C@H](C)O1 0.25 to 1 µg/mL

Supply reported MIC belonging to this molecule: C[C@@H]1CN2c3c(cc4c(N5C[C@H](CN=[N+]=[N-])SC5=O)noc4c3F)CC3(C(=O)NC(=O)NC3=O)[C@H]2[C@H](C)O1 0.125 µg/mL

---

# Tested on: Streptococcus pneumoniae
# assay-text: Antibacterial activity against penicillin-resistant Streptococcus pneumoniae after 18 to 20 hrs by CLSI-protocol based broth microdilution method
# Type: functional
Hi there, I'd appreciate the recorded MIC for every entry that follows.

Supply reported MIC belonging to this compound: CC[C@H]1CSC(=O)N1c1noc2c(F)c3c(cc12)CC1(C(=O)NC(=O)NC1=O)[C@H]1[C@H](C)O[C@H](C)CN31 0.5 to 1 µg/mL

Supply reported MIC belonging to this compound: C[C@@H]1CN(c2noc3c(C#N)c4c(cc23)CC2(C(=O)NC(=O)NC2=O)[C@H]2[C@H](C)O[C@H](C)CN42)C(=O)O1 4 to 8 µg/mL

Supply reported MIC belonging to this compound: C[C@@H]1CN2c3c(cc4c(N5CCSC5=O)noc4c3F)CC3(C(=O)NC(=O)NC3=O)[C@H]2[C@H](C)O1 ≤ 0.03 µg/mL

Supply reported MIC belonging to this compound: C[C@@H]1CN2c3c(cc4c(N5C(=O)SCC56CC6)noc4c3F)CC3(C(=O)NC(=O)NC3=O)[C@H]2[C@H](C)O1 1 to 2 µg/mL

Supply reported MIC belonging to this compound: C[C@@H]1CN2c3c(cc4c(N5C(=O)SC[C@H]5C)noc4c3F)CC3(C(=O)NC(=O)NC3=O)[C@H]2[C@H](C)O1 0.25 to 1 µg/mL

Supply reported MIC belonging to this compound: C[C@@H]1CN2c3c(cc4c(N5C[C@H](C)SC5=O)noc4c3F)CC3(C(=O)NC(=O)NC3=O)[C@H]2[C@H](C)O1 < 0.03 µg/mL
